The entries below pair molecules with log10(IC50) values for Oxytocin receptor (Rattus norvegicus, UniProt P70536), as found in several publications.
Biological target: Oxytocin receptor (Rattus norvegicus, UniProt P70536)
Sequence (P70536 whole entry): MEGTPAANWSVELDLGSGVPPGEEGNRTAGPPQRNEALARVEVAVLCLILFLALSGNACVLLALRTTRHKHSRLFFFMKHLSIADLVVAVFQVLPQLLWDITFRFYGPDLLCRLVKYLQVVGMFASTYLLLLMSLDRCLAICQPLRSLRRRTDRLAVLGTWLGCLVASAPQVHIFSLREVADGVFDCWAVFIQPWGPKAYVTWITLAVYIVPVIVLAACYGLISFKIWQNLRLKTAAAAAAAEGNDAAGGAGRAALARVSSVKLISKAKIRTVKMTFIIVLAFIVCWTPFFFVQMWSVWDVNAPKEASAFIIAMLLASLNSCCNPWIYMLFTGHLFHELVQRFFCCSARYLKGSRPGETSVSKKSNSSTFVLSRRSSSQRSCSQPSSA
parameterMeasured: log10(IC50) (log10 of the value in nM)

>  <molecule>
Cc1ccccc1N1CCN(S(=O)(=O)C[C@]23CCC(C[C@@H]2NC(=O)[C@@H](N)CCS(C)(=O)=O)C3(C)C)CC1

>  <log10(IC50)>
0.95

$$$$
>  <molecule>
CC1(C)[C@@H]2CC[C@@]1(CS(=O)(=O)N1CCC3(CCc4ccccc43)CC1)[C@@H](NC(=O)C1CCCCC1)C2

>  <log10(IC50)>
2.81

$$$$
>  <molecule>
CC1(C)[C@@H]2CC[C@@]1(CS(=O)(=O)N1CCC3(C=Cc4ccccc43)CC1)[C@@](O)(CCNC(=O)C1=CCC(=O)N=C1)C2

>  <log10(IC50)>
1.69

$$$$
>  <molecule>
CC[C@H](C)[C@@H]1NC(=O)[C@@H](Cc2ccccc2)NC(=O)[C@@H]2CCCN2C(=O)[C@@H](Cc2ccccc2)N(C)C(=O)[C@H](Cc2cnc[nH]2)NC(=O)[C@H]2CCCCN2C1=O

>  <log10(IC50)>
2.34

$$$$
>  <molecule>
CN[C@@H](CCS(C)(=O)=O)C(=O)N[C@H]1C[C@H]2CC[C@]1(CS(=O)(=O)N1CCN(c3ccccc3C)CC1)C2(C)C

>  <log10(IC50)>
0.96

$$$$
>  <molecule>
CC1(C)[C@@H]2CC[C@@]1(CS(=O)(=O)N1CCC3(CCc4ccccc43)CC1)[C@@H](N1C(=O)CN(Cc3c[nH]cn3)C1=O)C2

>  <log10(IC50)>
1.08

$$$$
>  <molecule>
CC1(C)[C@@H]2CC[C@@]1(CS(=O)(=O)N1CCC3(C=Cc4ccccc43)CC1)[C@@](O)(CNC(=O)CC13CC4CC(CC(C4)C1)C3)C2

>  <log10(IC50)>
2.68

$$$$
>  <molecule>
CCC(C(=O)N[C@H]1C[C@H]2CC[C@]1(CS(=O)(=O)N1CCC3(CCc4ccccc43)CC1)C2(C)C)c1c[nH]cn1 (stereo partly drawn)

>  <log10(IC50)>
2.23

$$$$
>  <molecule>
CC1(C)[C@@H]2CC[C@@]1(CS(=O)(=O)N1CCC3(CCc4ccccc43)CC1)[C@@H](N1C(=O)CC(CCC(=O)O)C1=O)C2 (stereo partly drawn)

>  <log10(IC50)>
1.62

$$$$
>  <molecule>
CC1(C)[C@@H]2CC[C@@]1(CS(=O)(=O)N1CCC3(CCc4ccccc43)CC1)[C@@H](NC(=O)c1cccnc1)C2

>  <log10(IC50)>
2.41

$$$$
>  <molecule>
Cn1cnc(CC(=O)N(CCS(C)(=O)=O)[C@H]2C[C@H]3CC[C@]2(CS(=O)(=O)N2CCC4(CCc5ccccc54)CC2)C3(C)C)c1

>  <log10(IC50)>
0.78

$$$$
>  <molecule>
Cc1ccccc1N1CCN(S(=O)(=O)C[C@]23CCC(C[C@@H]2NC(=O)[C@H](CCS(C)(=O)=O)NC2CCOCC2)C3(C)C)CC1

>  <log10(IC50)>
0.38

$$$$
>  <molecule>
CC(=O)NC[C@@]1(O)C[C@H]2CC[C@]1(CS(=O)(=O)N1CCC3(C=Cc4ccccc43)CC1)C2(C)C

>  <log10(IC50)>
2.11

$$$$
